Provenance of the data: ChEMBL document CHEMBL1201862

Tested System: Ephrin type-A receptor 4 (Mus musculus, UniProt Q03137)
Sequence (Q03137 whole entry): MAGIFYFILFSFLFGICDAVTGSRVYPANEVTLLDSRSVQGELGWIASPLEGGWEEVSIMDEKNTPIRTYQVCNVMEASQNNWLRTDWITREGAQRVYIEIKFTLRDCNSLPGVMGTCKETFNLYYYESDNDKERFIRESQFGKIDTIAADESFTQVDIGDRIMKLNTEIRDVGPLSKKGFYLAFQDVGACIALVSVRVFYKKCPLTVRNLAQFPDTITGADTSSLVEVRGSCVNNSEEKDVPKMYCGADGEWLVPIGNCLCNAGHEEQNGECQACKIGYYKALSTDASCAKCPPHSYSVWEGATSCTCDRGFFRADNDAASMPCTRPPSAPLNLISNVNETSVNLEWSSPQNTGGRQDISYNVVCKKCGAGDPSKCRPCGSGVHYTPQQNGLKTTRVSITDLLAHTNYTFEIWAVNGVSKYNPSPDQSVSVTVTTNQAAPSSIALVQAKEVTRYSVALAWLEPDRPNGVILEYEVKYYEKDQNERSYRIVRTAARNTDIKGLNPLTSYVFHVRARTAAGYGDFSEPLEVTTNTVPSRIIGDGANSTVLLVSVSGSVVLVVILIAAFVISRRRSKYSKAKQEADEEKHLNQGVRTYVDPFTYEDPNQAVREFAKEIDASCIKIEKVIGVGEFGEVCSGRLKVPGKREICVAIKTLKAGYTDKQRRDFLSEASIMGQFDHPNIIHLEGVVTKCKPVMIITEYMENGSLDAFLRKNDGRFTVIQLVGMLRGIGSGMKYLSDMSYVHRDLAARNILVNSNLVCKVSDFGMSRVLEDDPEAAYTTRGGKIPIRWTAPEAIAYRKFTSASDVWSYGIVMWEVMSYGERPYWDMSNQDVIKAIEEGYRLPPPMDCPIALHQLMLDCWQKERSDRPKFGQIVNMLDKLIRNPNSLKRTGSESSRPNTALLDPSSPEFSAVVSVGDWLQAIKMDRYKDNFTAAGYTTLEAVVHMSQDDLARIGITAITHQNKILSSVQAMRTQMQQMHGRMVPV
Assay Notes: inhibitors of EphA4 binding to KYL peptide, primary screen, biochemical, colorimetric, mouse EphA4 (AID 689)
Format: functional
Activity calls are given as the source filed them.
Endpoint Name: IC50

Exam item: What does the data say about its IC50? Entry: "O=C(/C=C/c1ccccc1)c1cc(Br)ccc(=O)c1O"
Marked response: 17.3 µM (active)

Exam item: What does the data say about its IC50? Entry: "Fc1ccc(-c2cc3nc4c(c(N5CCOCC5)n3n2)CCCC4)cc1"
Marked response: > 100 µM (not active)

Exam item: What does the data say about its IC50? Entry: "CCOc1ccc(/C=C/C2=Cc3c(sc(NC(=O)CSc4nnc(N)[nH]4)c3C#N)C(C)(C)C2)cc1"
Marked response: 1.79 µM (active)

Exam item: What does the data say about its IC50? Entry: "N#Cc1sc2nc(-c3cccs3)cc(-c3ccccc3)c2c1N"
Marked response: > 100 µM (not active)

---

Tested System: Kappa-type opioid receptor (Homo sapiens, UniProt P41145)
Sequence (P41145 whole entry): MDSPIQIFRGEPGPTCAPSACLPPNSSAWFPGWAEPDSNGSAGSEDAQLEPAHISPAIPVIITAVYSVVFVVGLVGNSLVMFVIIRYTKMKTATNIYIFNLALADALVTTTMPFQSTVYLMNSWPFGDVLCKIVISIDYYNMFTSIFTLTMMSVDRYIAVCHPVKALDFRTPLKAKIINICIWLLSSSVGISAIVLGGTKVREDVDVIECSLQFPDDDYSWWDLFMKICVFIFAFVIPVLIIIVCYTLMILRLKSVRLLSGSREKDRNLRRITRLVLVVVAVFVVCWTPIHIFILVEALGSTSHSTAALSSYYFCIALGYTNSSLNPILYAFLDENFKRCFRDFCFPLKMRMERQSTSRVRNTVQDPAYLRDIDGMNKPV
Format: functional
Endpoint Name: pEC50
# log scale: pEC50 equals minus log10 of the concentration in mol/L

Exam item: Kappa-type opioid receptor (Homo sapiens, UniProt P41145) / pEC50 / CCC(C)(C(=O)NC1CCCCC1)N(Cc1ccco1)C(=O)c1cnccn1 (stereo unspecified) : value?
Marked response: 5.61

---

So I've got a bunch of compounds here, and I need their IC50 values.
Tested System: Calpain-2 catalytic subunit (Sus scrofa)
Sequence (P43367 whole entry): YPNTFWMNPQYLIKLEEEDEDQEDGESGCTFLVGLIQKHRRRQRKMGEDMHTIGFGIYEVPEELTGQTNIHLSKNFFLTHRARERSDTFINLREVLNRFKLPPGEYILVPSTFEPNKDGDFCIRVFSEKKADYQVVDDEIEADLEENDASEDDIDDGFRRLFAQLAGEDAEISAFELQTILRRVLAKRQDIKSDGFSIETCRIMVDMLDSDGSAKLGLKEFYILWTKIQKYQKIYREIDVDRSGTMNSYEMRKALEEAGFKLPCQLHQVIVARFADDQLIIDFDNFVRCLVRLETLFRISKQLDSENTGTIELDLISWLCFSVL
Assay Notes: pig calpain II inhibitor potency, dose response, biochemical, fluorogenic peptide substrate (AID 1420)
Assay type: functional

Exam item: What does the data say about its IC50? Entry: COc1cccc(NC(=O)N(C2CCCCC2)C(C)c2cccs2)c1 (stereo not drawn)
Marked response: 8.59 µM (not active)

Exam item: What does the data say about its IC50? Entry: "O=C1/C(=N\c2ccc(O)cc2)C=C(O)c2ccccc21"
Marked response: 5.1 µM (not active)

Exam item: What does the data say about its IC50? Entry: "O=C(NNC(=O)c1cc(OCC(F)(F)F)ccc1OCC(F)(F)F)c1ccc(Cl)c(Cl)c1"
Marked response: 6.1 µM (not active)

Exam item: What does the data say about its IC50? Entry: "CCCN(CCC)C(=S)NC(=O)c1ccc(-c2ccccc2)cc1"
Marked response: 36.7 µM (not active)

Exam item: What does the data say about its IC50? Entry: "CCn1nc(C(=O)OCC(=O)c2c[nH]c3ccccc23)c2ccccc2c1=O"
Marked response: 3.99 µM (not active)

Exam item: What does the data say about its IC50? Entry: "CCc1ccc(C(=O)OCC(=O)c2c(N)n(CC(C)C)c(=O)n(C)c2=O)cc1"
Marked response: 2.96 µM (not active)

Exam item: What does the data say about its IC50? Entry: "Cc1ccc(NC(=O)CNC(=O)c2ccccc2F)cc1Cl"
Marked response: 37.6 µM (not active)

Exam item: What does the data say about its IC50? Entry: "O=c1c2c(-c3cccs3)csc2ncn1-n1cccc1"
Marked response: > 50 µM (not active)

---

Tested System: Cytochrome P450 1A2 (Homo sapiens);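 note: PubChem cytochrome P450 panel assay, CYP1A2 panel member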
Sequence (P05177 whole entry): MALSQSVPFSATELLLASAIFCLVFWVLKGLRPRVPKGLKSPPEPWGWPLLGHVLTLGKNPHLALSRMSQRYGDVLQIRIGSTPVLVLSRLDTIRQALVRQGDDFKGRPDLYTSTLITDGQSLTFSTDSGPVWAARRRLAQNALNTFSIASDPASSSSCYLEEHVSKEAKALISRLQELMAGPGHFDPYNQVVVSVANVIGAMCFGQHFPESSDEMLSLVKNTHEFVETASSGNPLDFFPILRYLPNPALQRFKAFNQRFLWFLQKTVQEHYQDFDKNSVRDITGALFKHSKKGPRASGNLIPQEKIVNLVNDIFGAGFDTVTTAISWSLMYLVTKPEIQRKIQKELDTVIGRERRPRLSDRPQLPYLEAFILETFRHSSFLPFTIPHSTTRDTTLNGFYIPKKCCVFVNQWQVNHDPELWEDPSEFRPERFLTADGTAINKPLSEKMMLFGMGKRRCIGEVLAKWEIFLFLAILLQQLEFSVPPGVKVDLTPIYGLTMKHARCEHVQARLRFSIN
Endpoint Name: AC50

Exam item: What does the data say about its AC50? Entry: "c1cc(-c2sc(-c3ccncc3)c(-c3ccncc3)c2-c2ccncc2)ccn1"
Marked response: 3.16 µM (inconclusive)

Exam item: What does the data say about its AC50? Entry: "CCNc1ncc2nc(CCc3ccccc3)c(=O)n(Cc3cccc(OC)c3)c2n1"
Marked response: 12.6 µM (inconclusive)

Exam item: What does the data say about its AC50? Entry: "CN1CCN(C(=O)O[C@@H]2c3nccnc3C(=O)N2c2ccc(Cl)cn2)CC1"
Marked response: 39.8 µM (inconclusive)

Exam item: What does the data say about its AC50? Entry: "COc1ccccc1-c1nc(NCCNC(C)=O)c2ccccc2n1"
Marked response: 15.8 µM (inconclusive)

Exam item: What does the data say about its AC50? Entry: COc1ccc(C(O)c2nccn2Cc2ccccc2)cc1 (stereo not drawn)
Marked response: 6.31 µM (inconclusive)

Exam item: What does the data say about its AC50? Entry: "Cc1c(/C=C2\SC(=O)N(CC(=O)Nc3ccc4c(c3)OCO4)C2=O)c2ccccc2n1C"
Marked response: 3.16 µM (inconclusive)

Exam item: What does the data say about its AC50? Entry: "CCNc1ncc2nc(-c3ccc(Cl)cc3)c(=O)n(Cc3ccc(F)cc3)c2n1"
Marked response: 12.6 µM (inconclusive)

Exam item: What does the data say about its AC50? Entry: "COC(=O)c1sccc1NC(=O)c1cc(-c2ccc(C)cc2)nc2ccccc12"
Marked response: 14.1 µM (inconclusive)
